# Test system: UO-31
# assay_procedure: NCI tumour cell line growth inhibition, 48 h
Calls of active or inactive are those of the source. No stated cut-off is given here; in the data, active = GI50 up to about 1.1 µM and inactive = higher.
measured_property: GI50

INSERT INTO results (compound, assay_value) VALUES
  ('COc1ccc(/C=C2\C(=O)N(C)C(=O)c3cc(OC)c(OC)cc32)cc1OC', '48 µM (inactive)'),
  ('O=C(NCCCCCCCCCCCCNC(=O)c1cnc2ccccc2n1)c1cnc2ccccc2n1', '23.9 µM (inactive)'),
  ('Cc1cc(OC(=O)c2c(C)cc(OC(=O)c3c(C)cc(O)cc3O)cc2O)cc(O)c1C(=O)O [GYROPHORIC ACID]', '76.4 µM (inactive)'),
  ('COC(=O)/C=C1\C(=O)Nc2ccc(Br)cc21', '2.19 µM (inactive)'),
  ('O=C(Cn1c(=O)ccn(C2OC(CO)C(O)C2F)c1=O)c1ccc(F)cc1 (stereo not given)', '> 100 µM (inactive)'),
  ('COc1ccc(-n2c3c(c4c(CN(C)C)c(O)ccc42)C(=O)c2ccccc2C3=O)cc1', '1.96 µM (inactive)'),
  ('CC(C)(C)OC(=O)N1CCC2(C)CC(=O)CC=C12 (stereo not given)', '> 100 µM (inactive)'),
  ('OCC(S)CS.[Bi] (stereo not given)', '16.7 µM (inactive)'),
  ('COc1cc(C=O)c(-c2cc(OC)c(OC)cc2C=O)cc1OC', '64.6 µM (inactive)'),
  ('CCOC(=O)c1cc2c(C(=O)c3ccc([N+](=O)[O-])cc3)c(C(C)=O)ccc2[nH]1', '> 100 µM (inactive)');
